Field: binding signal. Provide a value for each of the sequences that follow.
# measured.on: SIX1-Q177R homeodomain (human, UniProt Q15475 108-198, Q177R)
# Sequence: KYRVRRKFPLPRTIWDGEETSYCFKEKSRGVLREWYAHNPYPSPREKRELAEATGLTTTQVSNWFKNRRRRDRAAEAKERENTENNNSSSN
# assay.explanation: universal protein binding microarray; Universal all-10-mer PBM (8x60K, AMADID 030236), 300 nM GST-tagged protein, Alexa Fluor 488 anti-GST; buffer, salt, pH and temperature not stated (as in Berger); high values mean tight binding
# assay.conditions: protein: ivt; tags: N-terminal GST; dsDNA, one strand shown
In all, about 33,000 sequences were measured (“e-score”: median about -0.05, highest 2% from about 0.38 on). This is one part of a sample in which the highest values are shown more often than they occur.
Give the value, in units of E-score, as a plain number.

**Query** Give measured binding signal for `CATACCCC` (SIX1-Q177R homeodomain (human, UniProt Q15475 108-198, Q177R)).
**Result** 0.205

**Query** Give measured binding signal for `ACCCTTAC` (SIX1-Q177R homeodomain (human, UniProt Q15475 108-198, Q177R)).
**Result** 0.158

**Query** Give measured binding signal for `CTTGCACC` (SIX1-Q177R homeodomain (human, UniProt Q15475 108-198, Q177R)).
**Result** 0.166

**Query** Give measured binding signal for `ACACGCAT` (SIX1-Q177R homeodomain (human, UniProt Q15475 108-198, Q177R)).
**Result** 0.383

**Query** Give measured binding signal for `ATATAGTG` (SIX1-Q177R homeodomain (human, UniProt Q15475 108-198, Q177R)).
**Result** 0.265

**Query** Give measured binding signal for `CACTATTA` (SIX1-Q177R homeodomain (human, UniProt Q15475 108-198, Q177R)).
**Result** 0.158

**Query** Give measured binding signal for `ACACGGCA` (SIX1-Q177R homeodomain (human, UniProt Q15475 108-198, Q177R)).
**Result** 0.374

**Query** Give measured binding signal for `ATAGTGTA` (SIX1-Q177R homeodomain (human, UniProt Q15475 108-198, Q177R)).
**Result** 0.391

**Query** Give measured binding signal for `ACCCACAG` (SIX1-Q177R homeodomain (human, UniProt Q15475 108-198, Q177R)).
**Result** 0.217

**Query** Give measured binding signal for `ACCCTGCT` (SIX1-Q177R homeodomain (human, UniProt Q15475 108-198, Q177R)).
**Result** 0.19

**Query** Give measured binding signal for `GATACACC` (SIX1-Q177R homeodomain (human, UniProt Q15475 108-198, Q177R)).
**Result** 0.469

**Query** Give measured binding signal for `CATACACA` (SIX1-Q177R homeodomain (human, UniProt Q15475 108-198, Q177R)).
**Result** 0.205

**Query** Give measured binding signal for `GGTTTAAC` (SIX1-Q177R homeodomain (human, UniProt Q15475 108-198, Q177R)).
**Result** 0.193

**Query** Give measured binding signal for `AGTACCCG` (SIX1-Q177R homeodomain (human, UniProt Q15475 108-198, Q177R)).
**Result** 0.154

**Query** Give measured binding signal for `GATACTCC` (SIX1-Q177R homeodomain (human, UniProt Q15475 108-198, Q177R)).
**Result** 0.223

**Query** Give measured binding signal for `ACACGTCA` (SIX1-Q177R homeodomain (human, UniProt Q15475 108-198, Q177R)).
**Result** 0.323

**Query** Give measured binding signal for `CACTGGGC` (SIX1-Q177R homeodomain (human, UniProt Q15475 108-198, Q177R)).
**Result** 0.154

**Query** Give measured binding signal for `ACTGGGTG` (SIX1-Q177R homeodomain (human, UniProt Q15475 108-198, Q177R)).
**Result** 0.319

**Query** Give measured binding signal for `CGTATACA` (SIX1-Q177R homeodomain (human, UniProt Q15475 108-198, Q177R)).
**Result** 0.241

**Query** Give measured binding signal for `CACACATA` (SIX1-Q177R homeodomain (human, UniProt Q15475 108-198, Q177R)).
**Result** 0.15

**Query** Give measured binding signal for `CTAGTATC` (SIX1-Q177R homeodomain (human, UniProt Q15475 108-198, Q177R)).
**Result** 0.161

**Query** Give measured binding signal for `ACGCACAC` (SIX1-Q177R homeodomain (human, UniProt Q15475 108-198, Q177R)).
**Result** 0.307

**Query** Give measured binding signal for `ACTGGTAC` (SIX1-Q177R homeodomain (human, UniProt Q15475 108-198, Q177R)).
**Result** 0.192

**Query** Give measured binding signal for `ATACACGG` (SIX1-Q177R homeodomain (human, UniProt Q15475 108-198, Q177R)).
**Result** 0.401

**Query** Give measured binding signal for `ACACGGCT` (SIX1-Q177R homeodomain (human, UniProt Q15475 108-198, Q177R)).
**Result** 0.398

**Query** Give measured binding signal for `ATACACGC` (SIX1-Q177R homeodomain (human, UniProt Q15475 108-198, Q177R)).
**Result** 0.396

**Query** Give measured binding signal for `CACTCTCG` (SIX1-Q177R homeodomain (human, UniProt Q15475 108-198, Q177R)).
**Result** 0.288

**Query** Give measured binding signal for `ATGAGGGG` (SIX1-Q177R homeodomain (human, UniProt Q15475 108-198, Q177R)).
**Result** 0.195

**Query** Give measured binding signal for `CCACACGG` (SIX1-Q177R homeodomain (human, UniProt Q15475 108-198, Q177R)).
**Result** 0.197

**Query** Give measured binding signal for `AAGCGACA` (SIX1-Q177R homeodomain (human, UniProt Q15475 108-198, Q177R)).
**Result** 0.229

**Query** Give measured binding signal for `ACCAAACA` (SIX1-Q177R homeodomain (human, UniProt Q15475 108-198, Q177R)).
**Result** 0.244

**Query** Give measured binding signal for `ACACGTCG` (SIX1-Q177R homeodomain (human, UniProt Q15475 108-198, Q177R)).
**Result** 0.323

**Query** Give measured binding signal for `CACCCAAA` (SIX1-Q177R homeodomain (human, UniProt Q15475 108-198, Q177R)).
**Result** 0.255

**Query** Give measured binding signal for `ACACGTCT` (SIX1-Q177R homeodomain (human, UniProt Q15475 108-198, Q177R)).
**Result** 0.344

**Query** Give measured binding signal for `GATACACA` (SIX1-Q177R homeodomain (human, UniProt Q15475 108-198, Q177R)).
**Result** 0.191

**Query** Give measured binding signal for `ACACGCAC` (SIX1-Q177R homeodomain (human, UniProt Q15475 108-198, Q177R)).
**Result** 0.405

**Query** Give measured binding signal for `TATACACA` (SIX1-Q177R homeodomain (human, UniProt Q15475 108-198, Q177R)).
**Result** 0.169

**Query** Give measured binding signal for `ACTTCTAC` (SIX1-Q177R homeodomain (human, UniProt Q15475 108-198, Q177R)).
**Result** 0.182

**Query** Give measured binding signal for `CTAGTCAC` (SIX1-Q177R homeodomain (human, UniProt Q15475 108-198, Q177R)).
**Result** 0.19

**Query** Give measured binding signal for `AAACGTGT` (SIX1-Q177R homeodomain (human, UniProt Q15475 108-198, Q177R)).
**Result** 0.303

**Query** Give measured binding signal for `CGTGCACG` (SIX1-Q177R homeodomain (human, UniProt Q15475 108-198, Q177R)).
**Result** 0.17

**Query** Give measured binding signal for `AATACACG` (SIX1-Q177R homeodomain (human, UniProt Q15475 108-198, Q177R)).
**Result** 0.379

**Query** Give measured binding signal for `AATACCCC` (SIX1-Q177R homeodomain (human, UniProt Q15475 108-198, Q177R)).
**Result** 0.185

**Query** Give measured binding signal for `ACTTCGTG` (SIX1-Q177R homeodomain (human, UniProt Q15475 108-198, Q177R)).
**Result** 0.238

**Query** Give measured binding signal for `CACTTCAA` (SIX1-Q177R homeodomain (human, UniProt Q15475 108-198, Q177R)).
**Result** 0.265

**Query** Give measured binding signal for `CACGGAAA` (SIX1-Q177R homeodomain (human, UniProt Q15475 108-198, Q177R)).
**Result** 0.188
